Data provenance: the OligoGym collection

Exercise: for every item that follows, state its recorded normalised inhibition (eCFP-eYFP dual reporter).
- study_system: UBE2N; note: test concentration or dose not given here
- assay_notes: reporter assay of Huesken 2005
- cond: siRNA
Oligonucleotides are given in HELM: sugar(base)linkage, 5' to 3'; d 2'-deoxyribose, r ribose, m 2'-O-methylribose, p phosphate. ss, as = sense and antisense strand
Use % as the unit, but write only the number.

Give normalised inhibition (eCFP-eYFP dual reporter) for "RNA1{r(U)p.r(A)p.r(G)p.r(A)p.r(U)p.r(A)p.r(U)p.r(U)p.r(U)p.r(U)p.r(G)p.r(A)p.r(A)p.r(A)p.r(G)p.r(A)p.r(U)p.r(A)p.r(A)p.d(T)p.d(T)}|RNA2{r(U)p.r(U)p.r(A)p.r(U)p.r(C)p.r(U)p.r(U)p.r(U)p.r(C)p.r(A)p.r(A)p.r(A)p.r(A)p.r(U)p.r(A)p.r(U)p.r(C)p.r(U)p.r(A)p.d(G)p.d(A)}$$$RNA1{StrandType:ss}|RNA2{StrandType:as}$"
80.6

Note normalised inhibition (eCFP-eYFP dual reporter) for the substance shown: "RNA1{r(U)p.r(U)p.r(G)p.r(G)p.r(G)p.r(A)p.r(A)p.r(G)p.r(A)p.r(A)p.r(U)p.r(A)p.r(U)p.r(G)p.r(U)p.r(C)p.r(U)p.r(A)p.r(G)p.d(T)p.d(T)}|RNA2{r(C)p.r(U)p.r(A)p.r(G)p.r(A)p.r(C)p.r(A)p.r(U)p.r(A)p.r(U)p.r(U)p.r(C)p.r(U)p.r(U)p.r(C)p.r(C)p.r(C)p.r(A)p.r(A)p.d(C)p.d(T)}$$$RNA1{StrandType:ss}|RNA2{StrandType:as}$"
52.8

Check the records and state normalised inhibition (eCFP-eYFP dual reporter) for "RNA1{r(U)p.r(C)p.r(C)p.r(U)p.r(U)p.r(C)p.r(C)p.r(A)p.r(G)p.r(A)p.r(A)p.r(G)p.r(A)p.r(A)p.r(U)p.r(A)p.r(C)p.r(C)p.r(C)p.d(T)p.d(T)}|RNA2{r(G)p.r(G)p.r(G)p.r(U)p.r(A)p.r(U)p.r(U)p.r(C)p.r(U)p.r(U)p.r(C)p.r(U)p.r(G)p.r(G)p.r(A)p.r(A)p.r(G)p.r(G)p.r(A)p.d(A)p.d(T)}$$$RNA1{StrandType:ss}|RNA2{StrandType:as}$"
36.9
